Tested on: Escherichia coli
Test: Antibacterial activity against Escherichia coli ATCC 25922 after 18 to 24 hrs by broth microdilution method
Format: functional
For each record, write down the corresponding MIC.
Value and unit, in that order.

The following compounds have reported results that may help.
- COMPOUND: "Cl.O=C(CCC(=O)c1ccccc1)OC(Cn1ccnc1)c1ccc(Cl)cc1 (stereo unspecified)"
  MIC: "256 µg/mL"
- COMPOUND: "CCCC(CCC)C(=O)OC(Cn1ccnc1)c1ccc(Cl)cc1.Cl (stereo unspecified)"
  MIC: "512 µg/mL"
- COMPOUND: "Cl.O=C(/C=C/c1ccccc1)OC(Cn1ccnc1)c1ccccc1 (stereo unspecified)"
  MIC: "512 µg/mL"

Give MIC for each listed item.
1. Cl.O=C(OC(Cn1ccnc1)c1ccccc1)c1ccccc1 (stereo unspecified)
2. CCCC(CCC)C(=O)OC(Cn1ccnc1)c1ccccc1.Cl (stereo unspecified)

Reply:
["256 µg/mL", "512 µg/mL"]

====

For each record, write down the corresponding MIC.
System: Escherichia coli
Experiment: Antibacterial activity against Escherichia coli ATCC 25922 after 18 to 24 hrs by broth microdilution method
Assay type: functional
One number for each entry, in µg/mL.

- COMPOUND: "CC(=O)OC(Cn1ccnc1)c1ccccc1.Cl (configuration not stated)"
  UNITS: "µg/mL"
  MIC: 512
- COMPOUND: "Cl.O=C(OC(Cn1ccnc1)c1ccc(Cl)cc1)C1CCCCC1 (configuration not stated)"
  UNITS: "µg/mL"
  MIC: 256
- COMPOUND: "OC(Cn1ccnc1)c1ccc(Cl)cc1 (configuration not stated)"
  UNITS: "µg/mL"
  MIC: 256
- COMPOUND: "CC(=O)CCC(=O)OC(Cn1ccnc1)c1ccc(Cl)cc1.Cl (configuration not stated)"
  UNITS: "µg/mL"
  MIC: 512
- COMPOUND: "CCC(=O)OC(Cn1ccnc1)c1ccc(Cl)cc1.Cl (configuration not stated)"
  UNITS: "µg/mL"
  MIC: 512

Give MIC for each listed item.
1. CC(=O)CCC(=O)OC(Cn1ccnc1)c1ccccc1.Cl (configuration not stated)
2. OC(Cn1ccnc1)c1ccccc1 (configuration not stated)

Reply:
512
512

====

For each record, write down the corresponding viability at 48 h.
Assay: Cytotoxicity against human U937 cells assessed as cell viability at 10 to 100 ug/ml after 48 hrs by MTT assay relative to control
Type: cell-based, U-937
Conditions: read-out: Activity

The following compounds have reported results that may help.
- COMPOUND: "Cl.O=C(OC(Cn1ccnc1)c1ccccc1)c1ccc(-c2ccccc2)cc1 (stereo not drawn)"
  viability at 48 h: "70 to 80%"
- COMPOUND: "Cl.O=C(/C=C/c1ccccc1)OC(Cn1ccnc1)c1ccccc1 (stereo not drawn)"
  viability at 48 h: "70 to 80%"

For this compound ( CCC(=O)OC(Cn1ccnc1)c1ccc(Cl)cc1.Cl (stereo not drawn) ), measured viability at 48 h is 70 to 80%

====

System: Staphylococcus aureus
Assay: Antibacterial activity against Staphylococcus aureus ATCC 29213 after 18 to 24 hrs by broth microdilution method
Assay type: functional
MEASUREMENT_KIND: MIC (µg/mL)
Give bare numbers, in µg/mL.

The following compounds have reported results that may help.
- COMPOUND: "CC(=O)OC(Cn1ccnc1)c1ccccc1.Cl (stereo unspecified)"
  MIC [µg/mL]: 1020
- COMPOUND: "Cl.O=C(OC(Cn1ccnc1)c1ccc(Cl)cc1)c1ccccc1 (stereo unspecified)"
  MIC [µg/mL]: 128
- COMPOUND: "CCC(=O)OC(Cn1ccnc1)c1ccccc1.Cl (stereo unspecified)"
  MIC [µg/mL]: 1020

Give MIC for each listed item.
1. CCCC(=O)OC(Cn1ccnc1)c1ccc(Cl)cc1.Cl (stereo unspecified)
2. CCCC(CCC)C(=O)OC(Cn1ccnc1)c1ccccc1.Cl (stereo unspecified)
3. CCCC(CCC)C(=O)OC(Cn1ccnc1)c1ccc(Cl)cc1.Cl (stereo unspecified)

Reply:
1: 64; 2: 16; 3: 1020

====

Test system: Candida albicans
Assay: Anti-fungal activity against Candida albicans ATCC 90028 after 48 hrs by broth microdilution method
Format: functional
Conditions: ATCC 90028, 48 h
For each record, check the reported MIC: if it is below 4 µg/mL write Y, else write N.

Answered examples (5):
- MOLECULE: "Cl.O=C(CCCc1ccccc1)OC(Cn1ccnc1)c1ccc(Cl)cc1 (configuration not stated)"
  TESTED_SYSTEM: "Candida albicans"
  QUALITATIVE_LABEL: "Y"
- MOLECULE: "C/C=C/C=C/C(=O)OC(Cn1ccnc1)c1ccc(Cl)cc1.Cl (configuration not stated)"
  TESTED_SYSTEM: "Candida albicans"
  QUALITATIVE_LABEL: "Y"
- MOLECULE: "OC(Cn1ccnc1)c1ccccc1 (configuration not stated)"
  TESTED_SYSTEM: "Candida albicans"
  QUALITATIVE_LABEL: "N"
- MOLECULE: "Cl.O=C(CCC(=O)c1ccccc1)OC(Cn1ccnc1)c1ccccc1 (configuration not stated)"
  TESTED_SYSTEM: "Candida albicans"
  QUALITATIVE_LABEL: "N"
- MOLECULE: "Cl.O=C(Cc1ccccc1)OC(Cn1ccnc1)c1ccc(Cl)cc1 (configuration not stated)"
  TESTED_SYSTEM: "Candida albicans"
  QUALITATIVE_LABEL: "Y"

Now for another entry.
Query: Consider CCCC(=O)OC(Cn1ccnc1)c1ccccc1.Cl (configuration not stated) . Does its MIC lie strictly below 4 µg/mL?
Reply: N

====

For each record, write down the corresponding MIC.
Test system: Candida albicans
Assay: Anti-fungal activity against Candida albicans ATCC 90028 after 48 hrs by broth microdilution method
Type: functional
Conditions: ATCC 90028, 48 h
Numbers only, in µg/mL.

The following molecules have reported results that may help.
- MOLECULE: "CCCC(CCC)C(=O)OC(Cn1ccnc1)c1ccccc1.Cl (centres undefined)"
  MEASUREMENT_KIND: "MIC"
  UNITS: "µg/mL"
  EXPERIMENTAL_RESULT: 32
- MOLECULE: "OC(Cn1ccnc1)c1ccc(Cl)cc1 (centres undefined)"
  MEASUREMENT_KIND: "MIC"
  UNITS: "µg/mL"
  EXPERIMENTAL_RESULT: 128
- MOLECULE: "Cl.O=C(OC(Cn1ccnc1)c1ccc(Cl)cc1)c1ccc(-c2ccccc2)cc1 (centres undefined)"
  MEASUREMENT_KIND: "MIC"
  UNITS: "µg/mL"
  EXPERIMENTAL_RESULT: 0.25
- MOLECULE: "Cl.O=C(OC(Cn1ccnc1)c1ccc(Cl)cc1)c1ccccc1 (centres undefined)"
  MEASUREMENT_KIND: "MIC"
  UNITS: "µg/mL"
  EXPERIMENTAL_RESULT: 4
- MOLECULE: "CCC(=O)OC(Cn1ccnc1)c1ccccc1.Cl (centres undefined)"
  MEASUREMENT_KIND: "MIC"
  UNITS: "µg/mL"
  EXPERIMENTAL_RESULT: 64

Give MIC for each listed item.
1. Cl.O=C(Cc1ccccc1)OC(Cn1ccnc1)c1ccccc1 (centres undefined)
2. CC(=O)OC(Cn1ccnc1)c1ccccc1.Cl (centres undefined)

Reply:
1. 64
2. 128

Give MIC for each listed item.
1. CC(=O)CCC(=O)OC(Cn1ccnc1)c1ccccc1.Cl (centres undefined)
2. Cl.O=C(OC(Cn1ccnc1)c1ccccc1)c1ccc(-c2ccccc2)cc1 (centres undefined)
3. CC(=O)CCC(=O)OC(Cn1ccnc1)c1ccc(Cl)cc1.Cl (centres undefined)

Reply:
1. 256
2. 0.125
3. 64

====

For each record, write down the corresponding MIC.
Test system: Staphylococcus aureus
Assay: Antibacterial activity against Staphylococcus aureus ATCC 29213 after 18 to 24 hrs by broth microdilution method
Assay type: functional
One number for each entry, in µg/mL.

- MOLECULE: "O=C(O)c1cn(C2CC2)c2cc(N3CCNCC3)c(F)cc2c1=O [CIPROFLOXACIN]"
  MEASUREMENT_KIND: "MIC"
  UNITS: "µg/mL"
  EXPERIMENTAL_RESULT: 0.5
- MOLECULE: "CC(C)CC(=O)OC(Cn1ccnc1)c1ccccc1.Cl (stereo not drawn)"
  MEASUREMENT_KIND: "MIC"
  UNITS: "µg/mL"
  EXPERIMENTAL_RESULT: 256
- MOLECULE: "C/C=C/C=C/C(=O)OC(Cn1ccnc1)c1ccccc1.Cl (stereo not drawn)"
  MEASUREMENT_KIND: "MIC"
  UNITS: "µg/mL"
  EXPERIMENTAL_RESULT: 512
- MOLECULE: "Cl.O=C(OC(Cn1ccnc1)c1ccc(Cl)cc1)c1ccc(-c2ccccc2)cc1 (stereo not drawn)"
  MEASUREMENT_KIND: "MIC"
  UNITS: "µg/mL"
  EXPERIMENTAL_RESULT: 512
- MOLECULE: "Cl.O=C(/C=C/c1ccccc1)OC(Cn1ccnc1)c1ccccc1 (stereo not drawn)"
  MEASUREMENT_KIND: "MIC"
  UNITS: "µg/mL"
  EXPERIMENTAL_RESULT: 8
- MOLECULE: "CC(=O)OC(Cn1ccnc1)c1ccc(Cl)cc1.Cl (stereo not drawn)"
  MEASUREMENT_KIND: "MIC"
  UNITS: "µg/mL"
  EXPERIMENTAL_RESULT: 256
- MOLECULE: "Cl.O=C(CCCc1ccccc1)OC(Cn1ccnc1)c1ccc(Cl)cc1 (stereo not drawn)"
  MEASUREMENT_KIND: "MIC"
  UNITS: "µg/mL"
  EXPERIMENTAL_RESULT: 128
- MOLECULE: "Cl.O=C(Cc1ccccc1)OC(Cn1ccnc1)c1ccccc1 (stereo not drawn)"
  MEASUREMENT_KIND: "MIC"
  UNITS: "µg/mL"
  EXPERIMENTAL_RESULT: 128
- MOLECULE: "C/C=C/C=C/C(=O)OC(Cn1ccnc1)c1ccc(Cl)cc1.Cl (stereo not drawn)"
  MEASUREMENT_KIND: "MIC"
  UNITS: "µg/mL"
  EXPERIMENTAL_RESULT: 16
- MOLECULE: "OC(Cn1ccnc1)c1ccccc1 (stereo not drawn)"
  MEASUREMENT_KIND: "MIC"
  UNITS: "µg/mL"
  EXPERIMENTAL_RESULT: 1020

Give MIC for each listed item.
1. CCCCC(=O)OC(Cn1ccnc1)c1ccccc1.Cl (stereo not drawn)
2. Cl.O=C(OC(Cn1ccnc1)c1ccc(Cl)cc1)C1CCCCC1 (stereo not drawn)

Reply:
[256, 256]
